Test system: KB-3-1
measurement_protocol: Cell survival assay (SRB), KB-3-1
Type: cell-based, human
experimental_conditions: Homo sapiens, KB 3-1, KB-3-1 cells (paclitaxel-sensitive parent); read-out: In vitro IC50 (nM) KB-3-1
property_label: IC50
A complete answer gives the number followed by the unit.

Query CN[C@@H](C(=O)N[C@H](C(=O)N(C)[C@H](/C=C(\C)C(=O)O)C(C)C)C(C)(C)C)C(C)(C)c1ccc(/C=C/c2ccccc2)cc1 [Example 147] yields IC50 of 11.6 nM

# compound CN[C@H](C(=O)N[C@H](C(=O)N(C)[C@H](/C=C(\C)C(=O)O)C(C)C)C(C)(C)C)C1(c2ccccc2)CCCC1 [Example 71] ; its IC50 = 141 nM

Item: CN[C@H](C(=O)N[C@H](C(=O)N(C)[C@H](/C=C(\C)C(=O)O)C(C)C)C(C)(C)SC)C(C)(C)c1ccccc1 [Example 80] | IC50: 2.7 nM

The compound listed as CN[C@H](C(=O)N[C@H](C(=O)N(C)[C@H](/C=C(\C)C(=O)O)C(C)C)C(C)(C)C)C(C)(C)c1cccc(C(C)=O)c1 [Example 155] has a reported IC50 of 1.8 nM

Recorded IC50 (compound CN[C@H](C(=O)N[C@H](C(=O)N(C)[C@H](/C=C(\C)C(=O)Nc1ccc(N=[N+]=[N-])cc1)C(C)C)C(C)(C)C)C(C)(C)c1ccccc1 [Example 111] ): 178 nM

# compound C=CC[C@@H](/C=C(\C)C(=O)O)N(C)C(=O)[C@@H](NC(=O)[C@@H](NC)C(C)(C)c1ccccc1)C(C)(C)C [Example 119] ; its IC50 = 55 nM

Record CCC(CC)(c1ccccc1)[C@@H](NC)C(=O)N[C@H](C(=O)N(C)[C@H](/C=C(\C)C(=O)O)C(C)C)C(C)(C)C [Example 126] , field IC50: 18 nM

Lookup result for CN[C@@H](C(=O)N[C@H](C(=O)N(C)[C@H](/C=C(\C)C(=O)O)C(C)C)C(C)(C)C)C(C)(C)c1cccc(Cl)c1 [Example 3] ; measured IC50: 15.1 nM

Entry CN[C@H](C(=O)N[C@H](C(=O)N(C)[C@H](/C=C(\C)C(=O)O)C(C)C)C(C)(C)C)C(C)(C)c1ccc(OC(C)C)cc1 [Example 68] — recorded IC50 = 1.5 nM

// field: IC50; key: CN[C@@H](C(=O)N[C@H](C(=O)N(C)[C@H](/C=C(\C)C(=O)O)C(C)C)C(C)(C)C)C(C)(C)c1cc(F)cc(F)c1 [Example 65] ; value = 2 nM

The compound listed as CCOC(=O)/C(C)=C/[C@H](C(C)C)N(C)C(=O)[C@@H](NC(=O)[C@@H](NC)C(C)(C)c1cc(C)cc(C)c1)C(C)(C)C [Example 16a] shows IC50 equal to 15.1 nM

---

Tested on: KB-3-1
measurement_protocol: Cell survival assay (SRB), KB-3-1
Type: cell-based, human
experimental_conditions: Homo sapiens, KB 3-1, KB-3-1 cells (paclitaxel-sensitive parent); read-out: In vitro IC50 (nM) KB-3-1
Hi! Just check whether IC50 is below 80 nM. Below gives 1, equal or above gives -1.

Query: Take the molecule CN[C@@H](C(=O)N[C@H](C(=O)N(C)[C@H](/C=C(\C)C(=O)O)C(C)C)C(C)(C)C)C(C)(C)c1ccc(Cl)cc1 and say whether its IC50 is less than 80 nM.
Result: 1

Query: # TODO verify IC50 < 80 nM strictly for this molecule: CN[C@H](C(=O)N[C@H](C(=O)N(C)[C@H](C[C@@H](C)C(=O)O)C(C)C)C(C)(C)C)C(C)(C)c1ccccc1
Result: 1

Query: Quick check: IC50 of C/C(=C\[C@H](C(C)C)N(C)C(=O)[C@@H](NC(=O)[C@@H](N1CCCC1)C(C)(C)c1ccccc1)C(C)(C)C)C(=O)O under 80 nM?
Result: 1

Query: # strict comparison: is reported IC50 < 80 nM? input = CN[C@H](C(=O)N[C@@H](Cc1ccccc1)C(=O)N(C)[C@H](/C=C(\C)C(=O)O)C(C)C)C(C)(C)c1ccccc1
Result: -1

Query: For CN[C@H](C(=O)N[C@H](C(=O)N(C)[C@H](/C=C(\C)C(=O)O)C(C)C)C(C)(C)S(C)(=O)=O)C(C)(C)c1ccccc1 , is the recorded IC50 below the cut-off of 80 nM?
Result: -1

Query: Given the entry CN[C@H](C(=O)N[C@H](C(=O)N(C)[C@H](/C=C(\C)C(=O)O)CC(C)C)C(C)(C)C)C(C)(C)c1ccccc1 , would its reported IC50 be below 80 nM?
Result: -1

Query: Please check: IC50 for CN[C@@H](C(=O)N[C@H](C(=O)N(C)[C@H](/C=C(\C)C(=O)O)C(C)C)C(C)(C)C)C1(c2ccccc2)CCCC1 , strictly under 80 nM or not?
Result: 1

Query: API: query returns whether the molecule falls strictly under 80 nM in IC50. Query: CN[C@H](C(=O)N[C@H](C(=O)N(C)[C@H](/C=C(\C)C(=O)O)C(C)C)C(C)(C)SC)C(C)(C)c1ccc(OC)cc1
Result: 1

Query: Field: below-cutoff. Rule: recorded IC50 strictly less than 80 nM. Subject: CNC(C(=O)NC(C)C(=O)N(C)C(C=C(C)C(=O)O)C(C)C)C(C)(C)c1ccccc1.O=C(O)C(F)(F)F (centres unmarked)
Result: -1

Query: For CN[C@H](C(=O)N[C@H](C(=O)N(C)[C@H](/C=C(\C)C(=O)O)C(C)C)[C@H](C)OC)C(C)(C)c1ccccc1 , is the recorded IC50 below the cut-off of 80 nM?
Result: -1

Query: Does CN[C@H](C(=O)N[C@H](C(=O)N(C)[C@H](/C=C(\C)C(=O)O)C(C)C)C(C)(C)C)C(C)(C)c1cc(F)cc(F)c1 have IC50 strictly under 80 nM?
Result: 1

Query: Given the entry CN[C@H](C(=O)N[C@H](C(=O)N(C)[C@H](/C=C(\C)C(=O)O)C(C)C)C(C)(C)C)C(C)(C)c1ccccc1C , would its reported IC50 be below 80 nM?
Result: 1

Query: Is it true that IC50 reported for CN[C@H](C(=O)N[C@H](C(=O)N(C)[C@H](C[C@H](C)C(=O)O)C(C)C)C(C)(C)C)C(C)(C)c1ccccc1 is less than 80 nM?
Result: -1

Query: Lab note: confirm whether the reported IC50 for this molecule is below 80 nM, equality not counting. molecule: CCOC(=O)/C(C)=C/C(C(C)C)N(C)C(=O)[C@@H](NC(=O)[C@@H](NC)C(C)(C)c1ccccc1)[C@H](C)O (stereo in doubt)
Result: -1

Query: Decide: IC50 of CN[C@@H](C(=O)N[C@H](C(=O)N(C)[C@H](/C=C(\C)C(=O)O)C(C)C)C(C)(C)C)C(C)(C)c1ccc(C)cc1 strictly below 80 nM?
Result: 1

Query: API: query returns whether the molecule falls strictly under 80 nM in IC50. Query: CN[C@H](C(=O)N[C@@H](CCc1ccccc1)C(=O)N(C)[C@H](/C=C(\C)C(=O)O)C(C)C)C(C)(C)c1ccccc1
Result: -1

Query: Quick check: IC50 of CN[C@H](C(=O)N[C@H](C(=O)N(C)[C@H](/C=C(\C)C(=O)O)C(C)C)C(C)(C)C)C(C)(C)c1ccccc1OC under 80 nM?
Result: 1
